- target_or_test_system: WT PfPKG (Plasmodium falciparum, UniProt Q8I719)
- Construct: recombinant full length wild type (WT) PfPKG; His6 (N); host or cells: E. coli BL21
- Sequence (Q8I719 whole entry): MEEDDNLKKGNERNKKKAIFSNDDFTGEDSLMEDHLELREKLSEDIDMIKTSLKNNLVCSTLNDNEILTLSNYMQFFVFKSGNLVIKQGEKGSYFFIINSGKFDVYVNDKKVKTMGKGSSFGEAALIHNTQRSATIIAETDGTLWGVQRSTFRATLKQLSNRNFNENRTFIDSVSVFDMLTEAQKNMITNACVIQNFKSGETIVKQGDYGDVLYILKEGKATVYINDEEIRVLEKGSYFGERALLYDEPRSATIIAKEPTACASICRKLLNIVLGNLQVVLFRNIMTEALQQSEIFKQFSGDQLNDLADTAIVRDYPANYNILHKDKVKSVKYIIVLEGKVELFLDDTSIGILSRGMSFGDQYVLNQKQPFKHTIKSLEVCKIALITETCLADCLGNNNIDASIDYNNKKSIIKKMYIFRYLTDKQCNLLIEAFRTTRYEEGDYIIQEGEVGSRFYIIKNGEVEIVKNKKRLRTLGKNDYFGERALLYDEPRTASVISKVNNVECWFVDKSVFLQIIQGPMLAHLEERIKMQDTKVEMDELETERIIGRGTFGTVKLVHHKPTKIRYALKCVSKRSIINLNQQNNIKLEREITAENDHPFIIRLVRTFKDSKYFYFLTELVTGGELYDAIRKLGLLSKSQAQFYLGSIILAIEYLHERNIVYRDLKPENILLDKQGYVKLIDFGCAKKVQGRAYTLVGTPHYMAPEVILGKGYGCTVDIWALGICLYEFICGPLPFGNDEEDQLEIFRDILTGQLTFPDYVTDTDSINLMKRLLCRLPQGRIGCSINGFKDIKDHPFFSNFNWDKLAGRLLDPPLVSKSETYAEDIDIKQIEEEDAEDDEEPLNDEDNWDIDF
- Parameters: species or system P. falciparum
- details: lipophilic ligand efficiency
Field: LLE. Provide a value for each of the molecules that follow.
Answers are plain numbers.

Batch: LLE for all items listed.
1. Cc1ccc(S(C)(=O)=O)cc1Nc1nccc(-c2sc(CC(N)=O)nc2-c2ccccc2)n1
2. CNCCOc1cnc(-c2ccoc2C)c(-c2ccc3cnccc3c2)c1
3. CCn1cc(-c2ccncn2)c(-c2cccc(NS(=O)(=O)c3cc(F)ccc3F)c2)n1
4. COc1cccc(Nc2nc(-c3ccncc3)cc(N3CCN(C)CC3)n2)c1
5. CC(C)(CN)c1cc(-c2ccc(Cl)c(O)c2)c(-c2ccncc2)o1
6. COc1cc(CS(C)(=O)=O)ccc1Nc1nc(Nc2cc(F)ccc2C(N)=O)c2cc[nH]c2n1

Reply text:
1. 6.0
2. 5.1
3. 4.2
4. 3.9
5. 5.5
6. 4.4

---

Let's go through some IC50 measurements on PI3KD (Homo sapiens, UniProt O00329) together.
Sequence (O00329 whole entry): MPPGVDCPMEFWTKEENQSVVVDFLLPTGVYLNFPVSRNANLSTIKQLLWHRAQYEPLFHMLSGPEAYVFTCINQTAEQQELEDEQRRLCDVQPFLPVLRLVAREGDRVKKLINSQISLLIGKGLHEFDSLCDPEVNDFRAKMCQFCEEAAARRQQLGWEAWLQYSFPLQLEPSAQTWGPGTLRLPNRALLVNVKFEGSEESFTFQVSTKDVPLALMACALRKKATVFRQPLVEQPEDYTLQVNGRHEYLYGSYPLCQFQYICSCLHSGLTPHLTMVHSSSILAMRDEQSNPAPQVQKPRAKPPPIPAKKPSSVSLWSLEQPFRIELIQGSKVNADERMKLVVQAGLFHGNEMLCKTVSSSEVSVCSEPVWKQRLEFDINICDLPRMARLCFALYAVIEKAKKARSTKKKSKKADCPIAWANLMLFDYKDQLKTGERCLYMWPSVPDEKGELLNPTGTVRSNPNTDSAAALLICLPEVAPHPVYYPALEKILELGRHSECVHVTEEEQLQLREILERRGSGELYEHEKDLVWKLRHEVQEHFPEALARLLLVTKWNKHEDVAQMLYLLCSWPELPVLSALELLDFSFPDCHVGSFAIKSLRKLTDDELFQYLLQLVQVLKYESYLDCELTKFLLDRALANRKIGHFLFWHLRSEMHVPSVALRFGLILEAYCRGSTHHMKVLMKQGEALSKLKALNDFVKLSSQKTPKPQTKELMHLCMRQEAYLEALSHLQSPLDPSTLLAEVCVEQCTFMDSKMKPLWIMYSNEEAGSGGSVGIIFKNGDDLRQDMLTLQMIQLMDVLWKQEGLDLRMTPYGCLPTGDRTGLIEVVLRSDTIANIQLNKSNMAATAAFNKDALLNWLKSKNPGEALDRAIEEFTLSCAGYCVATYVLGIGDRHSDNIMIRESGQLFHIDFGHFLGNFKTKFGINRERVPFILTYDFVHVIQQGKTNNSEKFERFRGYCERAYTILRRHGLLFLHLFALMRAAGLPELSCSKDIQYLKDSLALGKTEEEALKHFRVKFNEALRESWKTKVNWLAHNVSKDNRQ
Sequence (P27986 whole entry partner): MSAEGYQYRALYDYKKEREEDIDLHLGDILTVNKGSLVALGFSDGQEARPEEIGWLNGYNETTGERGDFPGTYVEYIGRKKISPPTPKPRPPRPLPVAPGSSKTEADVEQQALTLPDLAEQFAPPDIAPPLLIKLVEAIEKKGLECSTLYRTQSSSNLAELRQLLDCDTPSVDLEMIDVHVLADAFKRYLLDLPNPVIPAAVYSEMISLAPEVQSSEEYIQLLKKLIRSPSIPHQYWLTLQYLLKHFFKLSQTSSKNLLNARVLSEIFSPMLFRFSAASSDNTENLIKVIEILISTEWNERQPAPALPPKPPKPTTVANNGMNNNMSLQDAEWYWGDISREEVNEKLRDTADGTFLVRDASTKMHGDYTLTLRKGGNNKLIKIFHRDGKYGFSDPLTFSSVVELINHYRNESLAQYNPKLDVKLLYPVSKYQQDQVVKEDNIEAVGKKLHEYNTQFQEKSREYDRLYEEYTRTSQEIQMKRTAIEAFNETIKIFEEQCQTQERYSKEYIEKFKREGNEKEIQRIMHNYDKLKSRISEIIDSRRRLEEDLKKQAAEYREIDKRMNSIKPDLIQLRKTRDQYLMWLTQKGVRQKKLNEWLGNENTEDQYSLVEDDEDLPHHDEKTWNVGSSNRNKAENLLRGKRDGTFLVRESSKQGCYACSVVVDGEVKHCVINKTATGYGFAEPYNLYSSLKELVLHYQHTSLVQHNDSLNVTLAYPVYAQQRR

Observe how each entry below is paired with its result.
INSERT INTO measurements (molecular_string, target_or_test_system, result) VALUES
  ('CCn1cc(-c2ccncn2)c(-c2cccc(NS(=O)(=O)c3cc(F)ccc3F)c2)n1', 'PI3KD (Homo sapiens, UniProt O00329)', '> 50.1 µM'),
  ('Nc1nccc(-c2c(-c3ccc(F)cc3)ncn2C2CCNCC2)n1', 'PI3KD (Homo sapiens, UniProt O00329)', '> 50.1 µM'),
  ('CNCCOc1cnc(-c2ccoc2C)c(-c2ccc3cnccc3c2)c1', 'PI3KD (Homo sapiens, UniProt O00329)', '> 50.1 µM'),
  ('O=C(N[C@@H](CO)c1ccccc1)c1ccc2cncc(-c3cn[nH]c3)c2n1', 'PI3KD (Homo sapiens, UniProt O00329)', '7.9 µM'),
  ('COc1cc(CS(C)(=O)=O)ccc1Nc1nc(Nc2cc(F)ccc2C(N)=O)c2cc[nH]c2n1', 'PI3KD (Homo sapiens, UniProt O00329)', '> 50.1 µM'),
  ('COc1ccc(-c2c(-c3cccc(C(=O)N4CCN(C)CC4)c3)oc3ncnc(N)c23)cc1', 'PI3KD (Homo sapiens, UniProt O00329)', '39.8 µM');

Batch: IC50 for all items listed.
1. COc1ccc(CCNC(=O)CSc2ncnc3[nH]ncc23)cc1OC
2. Cc1ccc(S(C)(=O)=O)cc1Nc1nccc(-c2sc(CC(N)=O)nc2-c2ccccc2)n1

Reply text:
1. > 50.1 µM
2. 0.0794 µM

---

- target_or_test_system: WT PfPKG (Plasmodium falciparum, UniProt Q8I719)
- Construct: recombinant full length wild type (WT) PfPKG; His6 (N); host or cells: E. coli BL21
- measurement_description: Kinase Glo enzymatic assay, recombinant WT PfPKG
- Format: biochemical, P. falciparum
- details: WT PfPKG (μM), recombinant WT PfPKG
Field: log10 of IC50. Provide a value for each of the molecules that follow.
Scale: log10; quantity: IC50; unit before log: µM

Observe how each entry below is paired with its result.
INSERT INTO results (molecule, result) VALUES
  ('CC(C)(CN)c1cc(-c2ccc(Cl)c(O)c2)c(-c2ccncc2)o1', -2.77),
  ('COc1cc(CS(C)(=O)=O)ccc1Nc1nc(Nc2cc(F)ccc2C(N)=O)c2cc[nH]c2n1', -1.30),
  ('Nc1ccc2c(-c3ccncc3)c(-c3ccc(Cl)c(O)c3)[nH]c2n1', -1.66);

Batch: log10 of IC50 for all items listed.
1. O=C(c1cccc(OCc2cccnc2)c1)N1CCc2sccc2C1CN1CCCCC1 (stereo not shown)
2. NCCNCc1ccc(-c2cc3ccncc3cc2OC2CCNCC2)s1
3. Nc1nc(Nc2cccc3cnccc23)nn1C(=O)C1CCCCC1
4. COc1cccc(Nc2nc(-c3ccncc3)cc(N3CCN(C)CC3)n2)c1
5. CCn1cc(-c2ccncn2)c(-c2cccc(NS(=O)(=O)c3cc(F)ccc3F)c2)n1
6. COc1ccc(-c2c(-c3cccc(C(=O)N4CCN(C)CC4)c3)oc3ncnc(N)c23)cc1
7. COc1ccc(CCNC(=O)CSc2ncnc3[nH]ncc23)cc1OC

Reply text:
1. -1.44
2. -0.49
3. -1.05
4. -1.57
5. -1.39
6. -2.00
7. -0.98

Batch: log10 of IC50 for all items listed.
1. O=C(N[C@@H](CO)c1ccccc1)c1ccc2cncc(-c3cn[nH]c3)c2n1
2. Cc1ccc(S(C)(=O)=O)cc1Nc1nccc(-c2sc(CC(N)=O)nc2-c2ccccc2)n1
3. CCn1c(-c2nonc2N)nc2c(-c3ccccc3)ncc(CN(C)C3CCN(C)CC3)c21

Reply text:
-1.03
-1.89
-1.41

---

Field: LE. Provide a value for each of the compounds that follow.
- target_or_test_system: WT PfPKG (Plasmodium falciparum, UniProt Q8I719)
- Construct: recombinant full length wild type (WT) PfPKG; His6 (N); host or cells: E. coli BL21
- Design: species or system P. falciparum
- details: ligand efficiency
Answers are plain numbers.

INSERT INTO results (compound, result) VALUES
  ('Nc1nc(Nc2cccc3cnccc23)nn1C(=O)C1CCCCC1 [Compound 16]', 0.4),
  ('O=C(c1cccc(OCc2cccnc2)c1)N1CCc2sccc2C1CN1CCCCC1 (centres unmarked) [Compound 14]', 0.32);

Batch: LE for all items listed.
1. Cc1ccc(S(C)(=O)=O)cc1Nc1nccc(-c2sc(CC(N)=O)nc2-c2ccccc2)n1 [Compound 3]
2. CCn1c(-c2nonc2N)nc2c(-c3ccccc3)ncc(CN(C)C3CCN(C)CC3)c21 [Compound 5]
3. COc1ccc(-c2c(-c3cccc(C(=O)N4CCN(C)CC4)c3)oc3ncnc(N)c23)cc1 [Compound 7]

Reply text:
1. 0.33
2. 0.3
3. 0.33

---

- target_or_test_system: AuroraB (Homo sapiens, UniProt Q96GD4)
- Sequence (Q96GD4 whole entry): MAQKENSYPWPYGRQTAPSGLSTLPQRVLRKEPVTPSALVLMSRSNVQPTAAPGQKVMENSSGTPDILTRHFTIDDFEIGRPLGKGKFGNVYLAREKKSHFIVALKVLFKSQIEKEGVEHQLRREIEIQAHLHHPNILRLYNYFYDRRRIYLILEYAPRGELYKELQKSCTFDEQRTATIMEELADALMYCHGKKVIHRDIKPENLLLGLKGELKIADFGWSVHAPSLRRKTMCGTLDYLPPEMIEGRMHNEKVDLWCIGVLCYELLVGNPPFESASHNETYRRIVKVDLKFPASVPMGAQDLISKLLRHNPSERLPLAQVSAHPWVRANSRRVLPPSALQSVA
Field: IC50. Provide a value for each of the compounds that follow.

Observe how each entry below is paired with its result.
INSERT INTO measurements (compound, measured_metric, result) VALUES
  ('Nc1nc(Nc2cccc3cnccc23)nn1C(=O)C1CCCCC1 [Compound 16]', 'IC50', '4 µM'),
  ('Nc1ccc2c(-c3ccncc3)c(-c3ccc(Cl)c(O)c3)[nH]c2n1 [Compound 15]', 'IC50', '4 µM'),
  ('CCn1cc(-c2ccncn2)c(-c2cccc(NS(=O)(=O)c3cc(F)ccc3F)c2)n1 [Compound 2]', 'IC50', '> 31.6 µM'),
  ('CNCCOc1cnc(-c2ccoc2C)c(-c2ccc3cnccc3c2)c1 [Compound 13]', 'IC50', '> 31.6 µM');

// compound COc1ccc(-c2c(-c3cccc(C(=O)N4CCN(C)CC4)c3)oc3ncnc(N)c23)cc1 [Compound 7] , assay AuroraB (Homo sapiens, UniProt Q96GD4), IC50 value: 3.2 µM

---

- measurement_description: PFI
- Type: physicochemical
Field: PFI. Provide a value for each of the compounds that follow.
Numbers only.

Observe how each entry below is paired with its result.
INSERT INTO assay_data (compound, measured_metric, result) VALUES
  ('NCCNCc1ccc(-c2cc3ccncc3cc2OC2CCNCC2)s1', 'PFI', 2.6),
  ('O=C(c1cccc(OCc2cccnc2)c1)N1CCc2sccc2C1CN1CCCCC1 (stereo not drawn)', 'PFI', 6.9),
  ('Cc1ccc(S(C)(=O)=O)cc1Nc1nccc(-c2sc(CC(N)=O)nc2-c2ccccc2)n1', 'PFI', 7.3),
  ('Nc1nccc(-c2c(-c3ccc(F)cc3)ncn2C2CCNCC2)n1', 'PFI', 3.8),
  ('CCn1c(-c2nonc2N)nc2c(-c3ccccc3)ncc(CN(C)C3CCN(C)CC3)c21', 'PFI', 7.7);

Entry COc1cccc(Nc2nc(-c3ccncc3)cc(N3CCN(C)CC3)n2)c1 , PFI reported as 6.6

---

- target_or_test_system: WT PfPKG (Plasmodium falciparum, UniProt Q8I719)
- Construct: recombinant full length wild type (WT) PfPKG; His6 (N); host or cells: E. coli BL21
- Set-up: species or system P. falciparum
- details: lipophilic ligand efficiency
Field: LLE. Provide a value for each of the compounds that follow.
One number for each entry.

Observe how each entry below is paired with its result.
INSERT INTO results (compound, target_or_test_system, result) VALUES
  ('O=C(c1cccc(OCc2cccnc2)c1)N1CCc2sccc2C1CN1CCCCC1 (stereo not shown)', 'WT PfPKG (Plasmodium falciparum, UniProt Q8I719)', 2.9),
  ('CCn1c(-c2nonc2N)nc2c(-c3ccccc3)ncc(CN(C)C3CCN(C)CC3)c21', 'WT PfPKG (Plasmodium falciparum, UniProt Q8I719)', 4.3),
  ('COc1ccc(CCNC(=O)CSc2ncnc3[nH]ncc23)cc1OC', 'WT PfPKG (Plasmodium falciparum, UniProt Q8I719)', 5.5);

Next compound, LLE to be filled in.
Entry O=C(N[C@@H](CO)c1ccccc1)c1ccc2cncc(-c3cn[nH]c3)c2n1 , LLE reported as 4.9
